Numbers sourced from paper PMC2248166.

target: HLA B*1501 (Homo sapiens, UniProt P01889, A329T/A93T/A95T/C349S/D201E/D98Y/E187L/E204Q/E69M/E70A/K202T/N87E/Q94N/R155S/R180W/S121R/S35A/S48A/V306I/V36M/Y140S/Y91S); assay: biochemical
Where a SMILES comes first, the peptide text is derived from it.
Entries and their IC50 values follow.
METRIC NAME: IC50 (nM)

# COMPOUND, READING UNIT, REPORTED RESULT
rows = [
    ("CC[C@H](C)[C@H](NC(=O)[C@H](CCSC)NC(=O)[C@H](C)N)C(=O)N[C@@H](CCC(=O)O)C(=O)N[C@@H](CC(C)C)C(=O)N[C@@H](CS)C(=O)NCC(=O)N[C@@H](C)C(=O)N[C@@H](Cc1ccccc1)C(=O)O [3102.1013] (H-AMIELCGAF-OH)", "nM", 0.34),
    ("CC(C)C[C@H](NC(=O)[C@H](CC(C)C)NC(=O)[C@@H](NC(=O)[C@H](CO)NC(=O)[C@H](Cc1ccc(O)cc1)NC(=O)[C@H](CC(C)C)NC(=O)[C@@H](N)CCC(N)=O)[C@@H](C)O)C(=O)N[C@@H](CO)C(=O)N[C@@H](Cc1ccccc1)C(=O)O [3102.1175] (H-QLYSTLLSF-OH)", "nM", 3),
    ("CC[C@H](C)[C@H](NC(=O)[C@H](CCCCN)NC(=O)[C@H](CC(N)=O)NC(=O)[C@H](CCCCN)NC(=O)[C@@H](NC(=O)[C@@H](N)Cc1ccccc1)[C@@H](C)CC)C(=O)N[C@@H](Cc1c[nH]cn1)C(=O)N[C@@H](CC(C)C)C(=O)N[C@@H](CC(C)C)C(=O)O [3102.0551] (H-FIKNKIHLL-OH)", "nM", 98),
    ("CC[C@H](C)[C@H](NC(=O)[C@@H](NC(=O)[C@@H](N)CC(C)C)[C@@H](C)CC)C(=O)N[C@@H](CCCCN)C(=O)N[C@@H](CO)C(=O)N[C@@H](CC(=O)O)C(=O)N[C@@H](Cc1c[nH]cn1)C(=O)N[C@@H](CCC(=O)O)C(=O)N[C@@H](Cc1ccccc1)C(=O)O [3102.0804] (H-LIIKSDHEF-OH)", "nM", 1.6),
    ("CC(C)C[C@H](N)C(=O)N[C@@H](C)C(=O)N[C@@H](CC(N)=O)C(=O)N[C@H](C(=O)N[C@@H](CC(N)=O)C(=O)N[C@@H](Cc1ccccc1)C(=O)N[C@@H](Cc1ccccc1)C(=O)N[C@H](C(=O)N[C@@H](Cc1ccccc1)C(=O)O)C(C)C)[C@@H](C)O [3102.0800] (H-LANTNFFVF-OH)", "nM", 17),
    ("CC[C@H](C)[C@H](NC(=O)[C@H](CS)NC(=O)[C@H](CS)NC(=O)[C@H](Cc1c[nH]cn1)NC(=O)[C@H](CCCNC(=N)N)NC(=O)[C@H](CO)NC(=O)[C@@H](NC(=O)[C@H](CCSC)NC(=O)[C@@H](N)CO)[C@@H](C)CC)C(=O)O [3102.0973] (H-SMISRHCCI-OH)", "nM", 81),
    ("CSCC[C@H](NC(=O)[C@H](Cc1c[nH]cn1)NC(=O)[C@@H]1CCCN1C(=O)[C@H](CC(C)C)NC(=O)[C@H](Cc1ccccc1)NC(=O)[C@H](CC(N)=O)NC(=O)[C@H](Cc1c[nH]cn1)NC(=O)[C@H](CC(C)C)NC(=O)[C@@H](N)CCSC)C(=O)O [3102.0846] (H-MLHNFLPHM-OH)", "nM", 41),
]
